Where these numbers come from: PubChem BioAssay

As shown below, each of these molecules has a reported inhibition value.
protocol.details: inhibitors of the yeast RAM network, pilot screen, dse1pr::URA3 reporter, 5-FOA selection (AID 869);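 further: 0% = DMSO wells with no growth and 100% = 10 µM 1-NA-PP1 with full growth; RAM network block rescues cells from 5-FOA so hits raise OD615 growth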
applied.conditions: S. cerevisiae dse1pr::URA3 5-FOA growth, OD615, 2 d; at 10 µM; active compounds read high; strain carries analog-sensitive mutant Cbk1 kinase
measured.endpoint: inhibition (%)

[[record]]
molecule = "O=C(c1ccco1)N1CCCC(c2nc(-c3ccc(S(=O)(=O)NCc4ccccc4)cc3)no2)C1 (configuration not stated)"
measured_endpoint = "inhibition"
unit_symbol = "%"
recorded_number = 1.58

[[record]]
molecule = "O=C(O)C1C2C=CC3(CN(Cc4ccco4)C(=O)C13)O2 (configuration not stated)"
measured_endpoint = "inhibition"
unit_symbol = "%"
recorded_number = 0.815

[[record]]
molecule = "Cc1cccc(C2CC(c3ccccc3)Nc3ncnn32)c1 (configuration not stated)"
measured_endpoint = "inhibition"
unit_symbol = "%"
recorded_number = 1.7

[[record]]
molecule = "CCN1CCN(c2nc(SC)nc3sc4c(c23)CC(C)(C)OC4)CC1"
measured_endpoint = "inhibition"
unit_symbol = "%"
recorded_number = 1.39

[[record]]
molecule = "Cc1ccc(Cl)cc1N(CC(=O)N1CCCCCC1)S(C)(=O)=O"
measured_endpoint = "inhibition"
unit_symbol = "%"
recorded_number = 0.635

[[record]]
molecule = "CC1(C)CC(NC(=O)C23CCC(C)(C(=O)C2)C3(C)C)CC(C)(C)N1 (configuration not stated)"
measured_endpoint = "inhibition"
unit_symbol = "%"
recorded_number = 2.67

[[record]]
molecule = "CCCCNc1cc(=O)n(C)c(=O)[nH]1"
measured_endpoint = "inhibition"
unit_symbol = "%"
recorded_number = 1.55

[[record]]
molecule = "NS(=O)(=O)c1ccc(CCNC(=O)C2CCCN(S(=O)(=O)c3cccnc3)C2)cc1 (configuration not stated)"
measured_endpoint = "inhibition"
unit_symbol = "%"
recorded_number = 1.63

[[record]]
molecule = "COc1ccc(-n2nnc3c(=O)n(CC(=O)N4CCC(Cc5ccccc5)CC4)cnc32)cc1"
measured_endpoint = "inhibition"
unit_symbol = "%"
recorded_number = 2.54

[[record]]
molecule = "CCOC(=O)C1CCCN(C(=O)C2CCN(c3nnc(-n4cccc4)s3)CC2)C1 (configuration not stated)"
measured_endpoint = "inhibition"
unit_symbol = "%"
recorded_number = 1.1

[[record]]
molecule = "Cn1c(C(=O)NC2CCCCCC2)cc2c(=O)n(C)c3ccccc3c21"
measured_endpoint = "inhibition"
unit_symbol = "%"
recorded_number = 1.1

[[record]]
molecule = "O=C1c2ccccc2C(=O)N1CSc1ncccn1"
measured_endpoint = "inhibition"
unit_symbol = "%"
recorded_number = 1.09

[[record]]
molecule = "Cc1ncc(CO)c2cc(S(=O)(=O)c3ccc(F)cc3)c(=O)oc12"
measured_endpoint = "inhibition"
unit_symbol = "%"
recorded_number = 0.14

[[record]]
molecule = "CCc1nnc(NC(=O)c2ccc(S(=O)(=O)N(CC)CC)cc2)s1"
measured_endpoint = "inhibition"
unit_symbol = "%"
recorded_number = 1.52

[[record]]
molecule = "c1cn(CCCNc2ncnc3nc[nH]c23)cn1"
measured_endpoint = "inhibition"
unit_symbol = "%"
recorded_number = 0.895

[[record]]
molecule = "CCC(CC)C(=O)Nc1ccccc1NC(C)=O"
measured_endpoint = "inhibition"
unit_symbol = "%"
recorded_number = 0.36

[[record]]
molecule = "O=C(C1CCCN(S(=O)(=O)c2cccc3cccnc23)C1)N1CCN(c2ccccc2F)CC1 (configuration not stated)"
measured_endpoint = "inhibition"
unit_symbol = "%"
recorded_number = -0.265

[[record]]
molecule = "CC(C)c1nc(SCC(=O)Nc2ccc3c(c2)OCCO3)c2c(=O)n(C)c(=O)n(C)c2n1"
measured_endpoint = "inhibition"
unit_symbol = "%"
recorded_number = 3.59

[[record]]
molecule = "CC(=O)C1C(c2ccccc2Cl)NC(=O)NC1(O)C(F)(F)F (configuration not stated)"
measured_endpoint = "inhibition"
unit_symbol = "%"
recorded_number = 1.93

[[record]]
molecule = "CC1(C)CC(=O)C(C=NCCN2CCN(C(=O)CC3CCCC3)CC2)=C(O)C1"
measured_endpoint = "inhibition"
unit_symbol = "%"
recorded_number = 1.25

[[record]]
molecule = "Cc1ccc(-c2nc(CS(=O)CC(=O)N3CCN(c4ncccn4)CC3)c(C)o2)cc1 (configuration not stated)"
measured_endpoint = "inhibition"
unit_symbol = "%"
recorded_number = 2.31

[[record]]
molecule = "COC(=O)c1c(N2C(=O)CCC2=O)sc2c1CCCC2"
measured_endpoint = "inhibition"
unit_symbol = "%"
recorded_number = 1.26


* * *

protocol.details: growth inhibitors of H69AR lung tumor, primary screen, human, duplicate replicates (AID 580);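 further: 100% = mean luminescence of untreated wells and 0% = no signal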
applied.conditions: H69AR lung tumor cells viability, ATP luminescence, 72 h; at 10 µM; active compounds read low
measured.endpoint: viability (%)

[[record]]
molecule = "CN(C)C(=O)CSc1nnc([C@H](Cc2c[nH]c3ccccc23)NC(=O)OC(C)(C)C)o1"
recorded_number = 94.6

[[record]]
molecule = "CC(=O)OCC1OC(c2ccccc2)C(OC(C)=O)C(OC(C)=O)C1OC(C)=O (stereo not drawn)"
recorded_number = 98.8

[[record]]
molecule = "CCSc1oc(-c2cccs2)nc1S(=O)(=O)c1ccccc1"
recorded_number = 82

[[record]]
molecule = "CCOC(=O)c1ccccc1NC(=O)COC(=O)C1=COCCO1"
recorded_number = 88.7

[[record]]
molecule = "Cc1ccc(-c2nc3ncccc3o2)cc1NC(=O)c1ccco1"
recorded_number = 99.2

[[record]]
molecule = "COc1ccc(C(=O)N(CCCO)Cc2cc3c(C)ccc(C)c3[nH]c2=O)cc1OC"
recorded_number = 95.1

[[record]]
molecule = "CC(=O)OCC(=O)c1ccc2ccn(C(C)=O)c2c1"
recorded_number = 90.5

[[record]]
molecule = "O=C(Nc1ccc2c(c1)OCO2)C(c1ccc(Cl)cc1)N1CCN(C(=O)c2ccco2)CC1 (stereo not drawn)"
recorded_number = 91.4

[[record]]
molecule = "NC(=O)NC(=O)CSc1cccc(C(F)(F)F)c1"
recorded_number = 88.2

[[record]]
molecule = "O=C(CCN1C(=O)COc2ccccc21)NCCN1CCN(c2cccc(Cl)c2)CC1"
recorded_number = 83.8

[[record]]
molecule = "CC(=O)N[C@@H](CS)C(=O)O"
recorded_number = 101

[[record]]
molecule = "O=C(/C=C1\\NC2(CCCC2)Cc2ccccc21)N1CCOCC1"
recorded_number = 102

[[record]]
molecule = "CC(C)CCNC(=O)CCNS(=O)(=O)c1ccc(Cl)cc1"
recorded_number = 94.1

[[record]]
molecule = "O=C(NCc1cccnc1)C1CCCN(S(=O)(=O)c2ccc(Cl)cc2)C1 (stereo not drawn)"
recorded_number = 86.9

[[record]]
molecule = "CC12CN3CC(C)(CN(C1)C3c1ccc(Br)cc1)C2 (stereo not drawn)"
recorded_number = 102

[[record]]
molecule = "COc1ccc(-c2noc(-c3ccccc3C(=O)NCc3ccco3)n2)cc1"
recorded_number = 82.8

[[record]]
molecule = "CC(=O)N(C)C1(c2nnnn2CCOC(=O)Nc2cccc3ccccc23)CCCC1"
recorded_number = 87.3

[[record]]
molecule = "COc1cc(OC)c(C(=O)Nc2ncn[nH]2)cc1OC"
recorded_number = 95

[[record]]
molecule = "O=C(Cn1cnc2c(nnn2-c2ccc(F)cc2)c1=O)N1CCCc2ccccc21"
recorded_number = 103

[[record]]
molecule = "Cc1cccc(-n2c(O)c(C=Nc3ccccc3N)c(=O)[nH]c2=O)c1"
recorded_number = 10.1

[[record]]
molecule = "Cc1ccc(C)c(OCCCC(C)(C)C(=O)O)c1"
recorded_number = 109

[[record]]
molecule = "CC(=O)c1cc(C#N)c(SCC(=O)OC(C)C)nc1C"
recorded_number = 61.2

[[record]]
molecule = "Cn1c(=O)n(CC(=O)OCc2ccccc2)c(=O)c2c1nc1n2CCCN1C1CCCCC1"
recorded_number = 78.7


* * *

inhibition values by entry
protocol.details: 384-well plate pilot, post-Golgi transport modulator project, inhibition of yeast transport mutant growth (AID 636)
applied.conditions: absorbance 615 nm, about 18 h, active compounds read high
measured.endpoint: inhibition (%)

[[record]]
compound = "COC(=O)c1ccc(CSc2nc3c(cnn3-c3ccc(C)c(C)c3)c(=O)[nH]2)o1"
measured_endpoint = "inhibition"
recorded_number = -3.6

[[record]]
compound = "OC1C[N+]2(CCCCC2)C1"
measured_endpoint = "inhibition"
recorded_number = -4.8

[[record]]
compound = "Cc1ccc(-c2[nH]nc3c2C(c2ccc(OC(=O)N4CCOCC4)cc2)C(C#N)=C(N)O3)cc1 (stereo unspecified)"
measured_endpoint = "inhibition"
recorded_number = -5.26

[[record]]
compound = "c1ccc(CNc2ncnc3ccccc23)cc1"
measured_endpoint = "inhibition"
recorded_number = -5

[[record]]
compound = "COc1cccc(-n2nnnc2SCC(=O)NCc2ccco2)c1"
measured_endpoint = "inhibition"
recorded_number = -4.8

[[record]]
compound = "CC1CCN(C(=O)CSc2nnc(-c3ccc(S(=O)(=O)N4CCOCC4)cc3)n2C)CC1"
measured_endpoint = "inhibition"
recorded_number = -4.4

[[record]]
compound = "Cc1cc(C)c2c(C)nn(C3CCCCC3)c2n1"
measured_endpoint = "inhibition"
recorded_number = 6.62

[[record]]
compound = "CCOCCCNS(=O)(=O)c1ccc2c(c1)oc(=O)n2CC(=O)OCC"
measured_endpoint = "inhibition"
recorded_number = -4.74

[[record]]
compound = "CCOC(=O)C1CCN(c2c(Nc3ccc4c(c3)OCCO4)c(=O)c2=O)CC1"
measured_endpoint = "inhibition"
recorded_number = 1.03

[[record]]
compound = "O=C(NCC(=O)N(c1ccc2c(c1)OCCO2)C(C(=O)NC1CCCC1)c1ccco1)c1ccco1 (stereo unspecified)"
measured_endpoint = "inhibition"
recorded_number = -4.53

[[record]]
compound = "Cc1cc(NC(=O)CSc2nccn2-c2ccc(F)cc2)no1"
measured_endpoint = "inhibition"
recorded_number = -2.99

